assayed_system: hnRNPA2 1-189 (tandem RRMs) (UniProt P22626-2 1-189)
Sequence (P22626 other isoform, or with tags, fused parts or gaps): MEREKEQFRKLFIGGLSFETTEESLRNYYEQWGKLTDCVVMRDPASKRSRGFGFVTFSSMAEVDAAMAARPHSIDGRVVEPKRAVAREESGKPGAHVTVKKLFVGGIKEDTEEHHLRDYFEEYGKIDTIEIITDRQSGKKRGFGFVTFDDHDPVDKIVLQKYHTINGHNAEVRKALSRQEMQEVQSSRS
protocol: ITC; 20 mM NaPi pH 6.75, 150 mM NaCl; N about 1; ITC: 20 mM NaPi pH 6.75, 150 mM NaCl, 25 C (also 20 mM KPi pH 6.75; 20 mM MES pH 6.7, 150 mM NaCl, 10 mM CaCl2); protein in syringe, RNA in cell
measurement_conditions: protein: recombinant; tags: His tag removed by TEV; single strand
readout_type: Kd

> print(dat)
                          binder  readout.type  measured
1  GCCAAGGAGCC (ssRNA) [rA2RE11]            Kd    ~52 µM
